test summary: folding stability dG unfold from trypsin proteolysis; higher = more stable
Decide using folding stability dG unfold: a value greater than or equal to 2 kcal/mol is Met, a smaller one is Not met.

>  <sequence chain>
SAGGSAGGSAGIKIEWEPNPNGSWRMKIEIPNPNGNPKKIEVWANPNGKIREDEAKEILNSAGGSAGGSAGG [r11_759_TrROS]

>  <class label>
Not met

$$$$
>  <sequence chain>
SAGGMTLEELAARVGRVEVEEAEDGGRVLRVTIPLAGPGGPPAPRTFLIEIPPDRPDLTIAEVLARLGSAGG [r13_319_TrMRF]

>  <class label>
Not met

$$$$
>  <sequence chain>
SAGGSSVSSVTLLSSETYTEGEKTFKRTTYLVPLPDGTTAIVTTEETTPPENPPEVEVSSSTTPLPGSAGGS [r16_121_JUSTAS]

>  <class label>
Not met

$$$$
>  <sequence chain>
SAGGKEIKIEVELDEDGNLTVTITLPDGRVVRITFTPGKITVEVFDAETGELVEEKTLTADELLELLSAGGS [r8_476_TrROS_Hall]

>  <class label>
Met

$$$$
>  <sequence chain>
SAGGEKPKEVEIEEVVVKNEETGEEVRFFRIRDKETDEWYVLAVVRNKDGEEKVVKMSAEEAKKLLESAGGS [r8_421_TrROS_Hall]

>  <class label>
Met

$$$$
>  <sequence chain>
SAGGSAKKKKGKKKKKIKKIKIKLKLPPGAEIVKIDKEKGVIYIRNKKTNKIYKIDLKTGKIVEIPSAGGSA [r15_452_TrROS_Hall]

>  <class label>
Not met

$$$$
>  <sequence chain>
SAGGSAKPELVKKLKEALEEEFPDLKVEVVKVDKKNKKIYIKVKSEEEKKRIAELLKKLGIEVEIESAGGSA [r15_196_TrROS_Hall]

>  <class label>
Met

$$$$
>  <sequence chain>
SMKLKLYDPATGKWYELTYDPAKGTVTITYPDGKVITRPVKSIEVNPETGTITITFPDSTETFTVPESLISA [r9_325_JUSTAS]

>  <class label>
Met

$$$$
>  <sequence chain>
SAGGMTPEEARKLAEELAKKLEEEGKEVEVKVEVNKDGKVVKIEIKPEGEKVTITLPDGEKVLELELPSAGG [r13_693_TrROS_Hall]

>  <class label>
Not met

$$$$
>  <sequence chain>
SAGGSEEIKKLLASGQLDEVIALLKKKGYENVTVTPDPRKPVVTINVTKTDPKTGKKKTTTITIPTGLSAGG [r13_359_JUSTAS]

>  <class label>
Met

$$$$
>  <sequence chain>
SAGGSAGGSSMTITVTDLVTGEPGEIPEELKAELAAEAEESGSAVTFEITTPDGKKYRAEITPSAGGSAGGS [r12_41_JUSTAS]

>  <class label>
Not met

$$$$
>  <sequence chain>
SAGGMKIVEITEEVPPGAVVRITFEDGSKREIKIPNVAELKGKKITLELPGLKVVKIEVVPAKEGEEVSAGG [r13_587_TrROS_Hall]

>  <class label>
Met

$$$$
>  <sequence chain>
IKIRFPDGHEITEIDDLSFSGNGYIEINVKVRNPENPQTQPMPIYIPVPPVPPPPVKIERDPGNGKWKYEDS [r1_411_TrROS]

>  <class label>
Not met

$$$$
